- assay-overview: Hemolysis in red blood cells (unknown origin) up to 40 uM
- Assay type: ADME, cell-based, Erythrocyte
- details: read-out: Activity
Quick reference: hemolysis of the listed items.

sample-smiles	result-value
CC(C)[C@@H]1O/C(=C/C(=O)Cc2ccc(OC(F)(F)F)cc2)NC1=O	< 1%

Here is the next item to consider.
For reference, reported hemolysis for CCCCCCCCCC(=O)/C=C1\NC(=O)[C@H](C(C)C)O1 stands at < 1%
